Where these numbers come from: patent US10597388B2

Field: Plant response rating, Crabgrass, Brazil. Provide a value for each of the compounds that follow.
tested on: crabgrass, Brazilian (Brazilian crabgrass, Digitaria horizontalis); assay: Test E greenhouse herbicide test, pre- and postemergence; type: in vivo; conditions: 62 g ai/ha, Postemergence; scale 0 to 100 (0 no effect, 100 complete control)
// no unit, no text: just the number

If you can, please state the reported Plant response rating, Crabgrass, Brazil value of `CCCC(=O)Oc1c(C)nn(C)c(=O)c1-c1c(C)sc2ccc(C)cc12` .
40

If you can, please state the reported Plant response rating, Crabgrass, Brazil value of `CCc1sc2ccc(C)cc2c1-c1c(O)c(C)nn(C)c1=O` .
20

If you can, please state the reported Plant response rating, Crabgrass, Brazil value of `Cn1nc(Br)c(O)c(-c2cccc3ccccc23)c1=O` .
20

If you can, please state the reported Plant response rating, Crabgrass, Brazil value of `Cc1cc2ccccc2c(-c2c(O)c(C)nn(C)c2=O)c1C` .
40

If you can, please state the reported Plant response rating, Crabgrass, Brazil value of `Cc1nn(C)c(=O)c(-c2ccc(Br)c3ccccc23)c1O` .
40

###

test system: crabgrass, Brazilian (Brazilian crabgrass, Digitaria horizontalis); assay: Test E greenhouse herbicide test, pre- and postemergence; type: in vivo; conditions: Postemergence, 31 g ai/ha; visual, scale 0 no effect to 100 complete control
Field: Plant response rating, Crabgrass, Brazil. Provide a value for each of the compounds that follow.
// no unit, no text: just the number

If you can, please state the reported Plant response rating, Crabgrass, Brazil value of `Cc1nn(C)c(=O)c(-c2cccc3ccc(Br)cc23)c1O` .
10

If you can, please state the reported Plant response rating, Crabgrass, Brazil value of `Cn1nc(Br)c(O)c(-c2cccc3ccccc23)c1=O` .
10

If you can, please state the reported Plant response rating, Crabgrass, Brazil value of `Cc1ccc2ccccc2c1-c1c(OC(=O)OC(C)C)c(C)nn(C)c1=O` .
50

If you can, please state the reported Plant response rating, Crabgrass, Brazil value of `CC(=O)Oc1c(C)nn(C)c(=O)c1-c1c(C)cc(C)c2ccccc12` .
10

If you can, please state the reported Plant response rating, Crabgrass, Brazil value of `Cc1nn(C)c(=O)c(-c2ccc(F)c3ccccc23)c1O` .
10

If you can, please state the reported Plant response rating, Crabgrass, Brazil value of `Cc1ccc2sc(C)c(-c3c(OC(=O)OC(C)C)c(C)nn(C)c3=O)c2c1` .
20

###

tested on: goosegrass (Eleusine indica); test: Test E greenhouse herbicide test, pre- and postemergence; assay type: in vivo; settings: 62 g ai/ha, Preemergence; scale 0 to 100 (0 no effect, 100 complete control)
Field: Plant response rating, Goosegrass. Provide a value for each of the compounds that follow.
// no unit, no text: just the number

If you can, please state the reported Plant response rating, Goosegrass value of Cc1cc2ccccc2c(-c2c(O)c(C)nn(C)c2=O)c1C [Compound 34] .
5

If you can, please state the reported Plant response rating, Goosegrass value of Cc1nn(C)c(=O)c(-c2ccc(F)c3ccccc23)c1O [Compound 41] .
0

If you can, please state the reported Plant response rating, Goosegrass value of Cn1nc(Br)c(O)c(-c2cccc3ccccc23)c1=O [Compound 20] .
10

If you can, please state the reported Plant response rating, Goosegrass value of COC(=O)Oc1c(C)nn(C)c(=O)c1-c1c(C)sc2ccc(C)cc12 [Compound 80] .
30

If you can, please state the reported Plant response rating, Goosegrass value of CCc1sc2c(C)cc(C)cc2c1-c1c(O)c(C)nn(C)c1=O [Compound 57] .
0

If you can, please state the reported Plant response rating, Goosegrass value of Cc1cc(C)c2sc(C)c(-c3c(O)c(C)nn(C)c3=O)c2c1 [Compound 2] .
5

If you can, please state the reported Plant response rating, Goosegrass value of Cc1ccc2sc(Br)c(-c3c(O)c(C)nn(C)c3=O)c2c1 [Compound 79] .
60

If you can, please state the reported Plant response rating, Goosegrass value of CCc1sc2ccc(C)cc2c1-c1c(O)c(C)nn(C)c1=O [Compound 47] .
0

###

test system: foxtail, giant (giant foxtail, Setaria faberii); assay: Test C greenhouse herbicide test, pre- and postemergence; type: in vivo; conditions: Postemergence, 250 g ai/ha; scale 0 to 100, 0 no effect, 100 complete control; 13 to 15 d
observed-property: Plant response rating, Foxtail, Giant
// no unit, no text: just the number

If you can, please state the reported Plant response rating, Foxtail, Giant value of `Cc1ccc2sc(C)c(-c3c(OC(=O)C(C)(C)C)c(C)nn(C)c3=O)c2c1` .
65

If you can, please state the reported Plant response rating, Foxtail, Giant value of `CCC(=O)Oc1c(C)nn(C)c(=O)c1-c1ccc(Br)c2ccccc12` .
45

If you can, please state the reported Plant response rating, Foxtail, Giant value of `Cn1nc(Br)c(O)c(-c2cccc3ccccc23)c1=O` .
80

If you can, please state the reported Plant response rating, Foxtail, Giant value of `CCc1ccc2ccccc2c1-c1c(O)c(C)nn(C)c1=O` .
90

###

Field: Plant response rating, Ragweed. Provide a value for each of the compounds that follow.
system: ragweed (common ragweed, Ambrosia elatior); experiment: Test C greenhouse herbicide test, pre- and postemergence; type: in vivo; details: Postemergence, 250 g ai/ha; scale 0 to 100, 0 no effect, 100 complete control; 13 to 15 d
Source text: […]
// no unit, no text: just the number

If you can, please state the reported Plant response rating, Ragweed value of `Cc1ccc2ccccc2c1-c1c(O)c(I)nn(C)c1=O` .
95

If you can, please state the reported Plant response rating, Ragweed value of `CCCC(=O)Oc1c(C)nn(C)c(=O)c1-c1c(CC)sc2ccc(C)cc12` .
98

If you can, please state the reported Plant response rating, Ragweed value of `Cc1ccc2ccccc2c1-c1c(O)c(C(F)(F)F)nn(C)c1=O` .
100

If you can, please state the reported Plant response rating, Ragweed value of `COC(=O)Oc1cnn(C)c(=O)c1-c1c(C)sc2ccccc12` .
35

If you can, please state the reported Plant response rating, Ragweed value of `Cc1nn(C)c(=O)c(-c2c(C)sc3ccc(Br)cc23)c1O` .
100

If you can, please state the reported Plant response rating, Ragweed value of `CCC(=O)Oc1c(C)nn(C)c(=O)c1-c1ccc(Br)c2ccccc12` .
30

If you can, please state the reported Plant response rating, Ragweed value of `CCCC(=O)Oc1c(C)nn(C)c(=O)c1-c1c(C)sc2ccc(C)cc12` .
100

If you can, please state the reported Plant response rating, Ragweed value of `Cc1nn(C)c(=O)c(-c2cccc3ccc(Br)cc23)c1O` .
95

###

tested on: ducksalad (Heteranthera limosa); assay: Test B flooded paddy test; format: in vivo; conditions: 250 g ai/ha, Flood; visual rating on scale of 0 to 100 where 0 is no effect and 100 is complete control; 13 to 15 d after treatment
Field: Plant response rating, Ducksalad. Provide a value for each of the compounds that follow.
// no unit, no text: just the number

Reported Plant response rating, Ducksalad for ducksalad (Heteranthera limosa), given `CC(=O)Oc1c(Cl)nn(C)c(=O)c1-c1c(C)sc2ccc(Cl)cc12` ?
50

Reported Plant response rating, Ducksalad for ducksalad (Heteranthera limosa), given `CCC(=O)Oc1c(C)nn(C)c(=O)c1-c1ccc(Br)c2ccccc12` ?
0

Reported Plant response rating, Ducksalad for ducksalad (Heteranthera limosa), given `Cn1nc(Br)c(O)c(-c2cccc3ccccc23)c1=O` ?
50

Reported Plant response rating, Ducksalad for ducksalad (Heteranthera limosa), given `Cc1nn(C)c(=O)c(-c2c([N+](=O)[O-])ccc3ccccc23)c1OC(=O)C1CC1` ?
0

Reported Plant response rating, Ducksalad for ducksalad (Heteranthera limosa), given `CCc1sc2ccc(C)cc2c1-c1c(O)c(C)nn(C)c1=O` ?
0

Reported Plant response rating, Ducksalad for ducksalad (Heteranthera limosa), given `COc1ccc(-c2c(O)c(C)nn(C)c2=O)c2ccccc12` ?
0

Reported Plant response rating, Ducksalad for ducksalad (Heteranthera limosa), given `COC(=O)Oc1c(C)nn(C)c(=O)c1-c1ccc(Br)c2ccccc12` ?
0

Reported Plant response rating, Ducksalad for ducksalad (Heteranthera limosa), given `Cc1sc2ccccc2c1-c1c(O)cnn(C)c1=O` ?
0

Reported Plant response rating, Ducksalad for ducksalad (Heteranthera limosa), given `COC(=O)Oc1c(C)nn(C)c(=O)c1-c1ccc(F)c2ccccc12` ?
0

###

test system: ragweed (common ragweed, Ambrosia elatior); assay: Test A greenhouse herbicide test, pre- and postemergence; type: in vivo; conditions: Preemergence, 500 g ai/ha; 0 to 100 scale where 0 is no effect and 100 is complete control
Source text: […]
observed-property: Plant response rating, Ragweed
// no unit, no text: just the number

If you can, please state the reported Plant response rating, Ragweed value of `COC(=O)Oc1c(C)nn(C)c(=O)c1-c1ccc(F)c2ccccc12` .
90

If you can, please state the reported Plant response rating, Ragweed value of `CCC(=O)Oc1c(OC)nn(C)c(=O)c1-c1c(C)sc2ccc(Cl)cc12` .
60

If you can, please state the reported Plant response rating, Ragweed value of `COC(=O)Oc1c(C)nn(C)c(=O)c1-c1ccc(Br)c2ccccc12` .
100

If you can, please state the reported Plant response rating, Ragweed value of `CCC(=O)Oc1c(C)nn(C)c(=O)c1-c1c(C)ccc2ccccc12` .
90

If you can, please state the reported Plant response rating, Ragweed value of `CCC(=O)Oc1c(C)nn(C)c(=O)c1-c1ccc(Br)c2ccccc12` .
90

If you can, please state the reported Plant response rating, Ragweed value of `CCCC(=O)Oc1c(C)nn(C)c(=O)c1-c1c(CC)sc2ccc(C)cc12` .
100

If you can, please state the reported Plant response rating, Ragweed value of `Cc1ccc2ccccc2c1-c1c(O)c(C(F)(F)F)nn(C)c1=O` .
90

If you can, please state the reported Plant response rating, Ragweed value of `Cc1ccc2ccccc2c1-c1c(OS(C)(=O)=O)cnn(C)c1=O` .
40

If you can, please state the reported Plant response rating, Ragweed value of `CC(=O)Oc1c(C)nn(C)c(=O)c1-c1c(C)sc2ccc(C(F)(F)F)cc12` .
90

If you can, please state the reported Plant response rating, Ragweed value of `CC(=O)Oc1c(C)nn(C)c(=O)c1-c1c(C)sc2ccc(Cl)cc12` .
100

If you can, please state the reported Plant response rating, Ragweed value of `Cc1nn(C)c(=O)c(-c2cccc3ccc(OC(F)F)cc23)c1O` .
20

If you can, please state the reported Plant response rating, Ragweed value of `Cc1ccc2c(-c3c(O)c(C)nn(C)c3=O)c(C)ccc2c1` .
40

If you can, please state the reported Plant response rating, Ragweed value of `CC(=O)Oc1c(Cl)nn(C)c(=O)c1-c1c(C)sc2ccc(Cl)cc12` .
90

If you can, please state the reported Plant response rating, Ragweed value of `CCc1nn(C)c(=O)c(-c2c(C)oc3ccc(Cl)cc23)c1O` .
0

If you can, please state the reported Plant response rating, Ragweed value of `Cc1nn(C)c(=O)c(-c2ccc(Br)c3ccccc23)c1O` .
90

If you can, please state the reported Plant response rating, Ragweed value of `Cc1ccc2sc(Br)c(-c3c(O)c(C)nn(C)c3=O)c2c1` .
80

If you can, please state the reported Plant response rating, Ragweed value of `Cc1nn(C)c(=O)c(-c2cccc3ccc(Br)cc23)c1O` .
80

If you can, please state the reported Plant response rating, Ragweed value of `CCOC(=O)Oc1c(C)nn(C)c(=O)c1-c1c([N+](=O)[O-])ccc2ccccc12` .
90

If you can, please state the reported Plant response rating, Ragweed value of `CCc1nn(C)c(=O)c(-c2c(C)oc3ccc(C)cc23)c1O` .
0
